Experiment summary: Half life in rat liver microsomes in presence of NADPH by LC-MS/MS analysis
Type: ADME, microsome
Condition info: liver microsomes
Experimental readout: half-life

Consider `O=C(Nc1ccc(Cl)cc1)Nc1cccc(-c2cccc(N3CCCC3)n2)c1` . Its measured half-life is 13 to 13.4 min

* * *

Target entity: Cannabinoid receptor 1 (Homo sapiens)
Sequence (P21554 whole entry): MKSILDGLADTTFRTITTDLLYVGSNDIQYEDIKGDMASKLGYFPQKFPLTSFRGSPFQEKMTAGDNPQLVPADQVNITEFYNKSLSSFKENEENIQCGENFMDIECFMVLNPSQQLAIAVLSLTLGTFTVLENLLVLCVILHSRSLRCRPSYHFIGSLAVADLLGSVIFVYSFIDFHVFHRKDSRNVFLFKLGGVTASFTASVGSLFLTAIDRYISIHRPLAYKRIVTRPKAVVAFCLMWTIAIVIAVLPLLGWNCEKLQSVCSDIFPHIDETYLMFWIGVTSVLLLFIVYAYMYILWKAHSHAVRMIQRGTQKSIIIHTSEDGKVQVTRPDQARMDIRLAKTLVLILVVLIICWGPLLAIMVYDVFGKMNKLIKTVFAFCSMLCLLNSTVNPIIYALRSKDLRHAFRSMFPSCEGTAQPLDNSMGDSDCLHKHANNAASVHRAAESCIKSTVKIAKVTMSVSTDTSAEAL
Experiment summary: Agonist activity at human CB1 receptor expressed in CHO cells co-expressing Galpha16 assessed as increase in calcium mobilization at 10 uM measured at 1 sec interval for 90 secs by calcium-5 dye based FLIPR assay relative to CP55,940
Type: cell-based
Condition info: 0.025 h
# Emax at 10 µM per entry
Numeric only. Scale: %

See these solved cases before continuing.
CC(C)(C)c1cc(-c2cccc(NC(=O)Nc3ccc(Cl)cc3)c2)cc(C(C)(C)C)c1	10
O=C(Nc1ccc(Cl)cc1)Nc1cccc(-c2cccc([N+](=O)[O-])c2)c1	17
O=C(Nc1ccc(Cl)cc1)Nc1cccc(-c2cccnc2)c1	34
Cc1ccccc1-c1cccc(NC(=O)Nc2ccc(Cl)cc2)c1	6
O=C(Nc1ccc(Cl)cc1)Nc1cccc(-c2cccc(O)c2)c1	10

Consider `O=C(Nc1ccc(Cl)cc1)Nc1cccc(-c2ccc3c(c2)Cc2ccccc2-3)c1` . Its measured Emax at 10 µM is 0

Consider `O=C(Nc1ccc(Cl)cc1)Nc1cccc(-c2ccc(Cl)c(Cl)c2)c1` . Its measured Emax at 10 µM is 20

Consider `O=C(Nc1ccc(Cl)cc1)Nc1cccc(-c2cc(Cl)cc(Cl)c2)c1` . Its measured Emax at 10 µM is 16
